Test system: LG0567-F671-PDC complex spheroids viability
Assay: Anticancer human tumor LG0567-F671-PDC patient-derived lung adenocarcinoma cell line growth inhibition [RAS]
Settings: second compound 0.000949 µM; first compound 0.00316 µM; stronger effect = lower value
Would you mind telling me the reported viability, T/C of each entry?
Answers are plain numbers, in %.

These recorded examples may help you get a feel for the data.
# molecule, unit-abbrev, viability, T/C
measured = [
    ("C=CC(=O)Nc1cc(Nc2nccc(-c3cn(C)c4ccccc34)n2)c(OC)cc1N(C)CCN(C)C + CCn1c(-c2cccnc2C(C)OC)c2c3cc(ccc31)N1CCOC(CC(NC(=O)C(C(C)C)N(C)C(=O)C3(F)CCN(C(=O)C#CC(C)(C)N(C)C)CC3)C(=O)N3CCCC(N3)C(=O)OCC(C)(C)C2)C1", "%", 15.6),
    ("C=CC(=O)N1CCN(c2nc(OCC3CCCN3C)nc3c(F)c(-c4nc(N)cc(C)c4C(F)(F)F)c(Cl)cc23)C(C)C1 (centres undefined) + CCn1c(-c2cccnc2C(C)OC)c2c3cc(ccc31)N1CCOC(CC(NC(=O)C(C(C)C)N(C)C(=O)C3(F)CCN(C(=O)C#CC(C)(C)N(C)C)CC3)C(=O)N3CCCC(N3)C(=O)OCC(C)(C)C2)C1", "%", 13.9),
]

List viability, T/C for every entry below, keeping the order given.
1. CCN1CCN(Cc2ccc(Nc3ncc(F)c(-c4cc(F)c5nc(C)n(C(C)C)c5c4)n3)nc2)CC1 + CCn1c(-c2cc(N3CCN(C)CC3)cnc2C(C)OC)c2c3cc(ccc31)-c1csc(n1)CC(NC(=O)C1CC1C)C(=O)N1CCCC(N1)C(=O)OCC(C)(C)C2
2. C=CC(=O)Nc1cc(Nc2nccc(-c3cn(C)c4ccccc34)n2)c(OC)cc1N(C)CCN(C)C + CCn1c(-c2cc(N3CCN(C)CC3)cnc2C(C)OC)c2c3cc(ccc31)-c1csc(n1)CC(NC(=O)C1CC1C)C(=O)N1CCCC(N1)C(=O)OCC(C)(C)C2

Result string:
27.4
24.1

---

Test system: LG0567-F671-PDC complex spheroids viability
Test: Anticancer human tumor LG0567-F671-PDC cell line growth inhibition [RAS]; active = viability on the fitted dose curve at most 10% of control; inactive = the rest;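 further: spheroids exposed to compound for seven days before readout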
Details: second compound 0.003 µM; first compound 0.1 µM
Select the matching outcome among active, inactive

These recorded examples may help you get a feel for the data.
# compound, qualitative-label
rows = [
    ("CC(C)n1nc(-c2ccc3oc(N)nc3c2)c2c(N)ncnc21 + CCn1c(-c2cccnc2C(C)OC)c2c3cc(ccc31)N1CCOC(CC(NC(=O)C(C(C)C)N(C)C(=O)C3(F)CCN(C(=O)C#CC(C)(C)N(C)C)CC3)C(=O)N3CCCC(N3)C(=O)OCC(C)(C)C2)C1", "inactive"),
    ("O=C(c1ccc(F)c(F)c1Nc1ccc(I)cc1F)N1CC(O)([C@@H]2CCCCN2)C1 + CCn1c(-c2cc(N3CCN(C)CC3)cnc2C(C)OC)c2c3cc(ccc31)-c1csc(n1)CC(NC(=O)C1CC1C)C(=O)N1CCCC(N1)C(=O)OCC(C)(C)C2", "active"),
]

Query string: Call for entry CC(Nc1ccc2c(c1)OCCn1cc(N3C(=O)OCC3C(F)F)nc1-2)C(N)=O (stereo not drawn) + CCn1c(-c2cc(N3CCN(C)CC3)cnc2C(C)OC)c2c3cc(ccc31)-c1csc(n1)CC(NC(=O)C1CC1C)C(=O)N1CCCC(N1)C(=O)OCC(C)(C)C2 :
Result string: active

meta.source: PubChem BioAssay AID2060889
